Overview of recorded IC50 for various compounds
# Test system: A375 cells, a human melanoma cell line having the V600E mutant Braf
# test-description: B-Raf cell-based assay (ratio of phospho-ERK1/2 to total ERK1/2)
# setup-conditions: A-375, 1 h, P-ERK/total ERK, 60 minute incubation, threshold lists, read-out: IC50 for the inhibition of B-raf as measured by the cell-based assay
# Protocol: A cell-based assay was optimized to assay the ability of compounds to inhibit Braf activity in a whole cell context. […] The cell-based assay quantifies the ratio of phospho-ERK1/2 to total ERK1/2 and can thereby assay the cellular inhibition of Braf kinase activity. A375 cells are plated into 96 well plates and grown to confluence. The cells are then changed into starve media (DMEM/0.1% BSA) for 60 minutes. […] The ratio of P-ERK/total ERK is determined and IC50s generated using Excel-XLfit software.
experimental-endpoint: IC50

compound: CNc1cc(-c2cccnc2Nc2c(C)ccc3c(Nc4cccc(C(F)(F)F)c4)ncnc23)ncn1
experimental-endpoint: IC50
data-value: ≤ 5 µM
//
compound: CNc1cc(-c2cccnc2Nc2c(C)ccc3c(Nc4ccc(Cl)c(C)c4)nccc23)ncn1
experimental-endpoint: IC50
data-value: ≤ 5 µM
//
compound: CNc1ncc2cc(-c3c(C)ccc4c(Nc5cccc(OC(F)(F)F)c5)nc(C)nc34)ccc2n1
experimental-endpoint: IC50
data-value: ≤ 5 µM
//
compound: CNc1ncc2cc(-c3c(C)ccc4c(Nc5cccnc5)nn(C)c34)ccc2n1
experimental-endpoint: IC50
data-value: ≤ 1 µM
//
compound: CNc1ncc2cc(-c3c(C)ccc4c(NC5CCC(C(C)(C)C)CC5)ncnc34)ccc2n1 (centres unmarked)
experimental-endpoint: IC50
data-value: ≤ 1 µM
//
compound: CNc1cc(-c2cccnc2F)ncn1
experimental-endpoint: IC50
data-value: ≤ 1 µM
//
compound: CNc1ncc2cc(-c3c(C)ccc4c(Nc5ccc(-n6ccnc6)cc5)nn(C)c34)ccc2n1
experimental-endpoint: IC50
data-value: ≤ 1 µM
//
compound: CNc1nccc(-c2cccnc2Oc2c(C)ccc3c(Nc4cccc(OC(F)(F)F)c4)nccc23)n1
experimental-endpoint: IC50
data-value: ≤ 5 µM
//
compound: CNc1ncc2cc(-c3c(C)sc4c(Nc5cccc(C(F)(F)F)c5)nccc34)ccc2n1
experimental-endpoint: IC50
data-value: ≤ 5 µM
//
compound: CNc1ncc2cc(-c3c(C)ccc4c(Nc5ccc(C#N)cc5)nccc34)ccc2n1
experimental-endpoint: IC50
data-value: ≤ 1 µM
//
compound: CNc1cc(-c2cccnc2Nc2c(C)ccc3c(Nc4cc(C(F)(F)F)ccc4C)nccc23)ncn1
experimental-endpoint: IC50
data-value: ≤ 5 µM
//
compound: CNc1ncc2cc(-c3c(C)ccc4c(Nc5ccc6sc(C)nc6c5)ncnc34)ccc2n1
experimental-endpoint: IC50
data-value: ≤ 1 µM
//
compound: CNc1ncc2cc(-c3c(C)ccc4c(Nc5cccc(C(F)(F)F)c5)nccc34)c(=O)n(C)c2n1
experimental-endpoint: IC50
data-value: ≤ 5 µM
//
compound: CNc1ncc2cc(-c3c(C)ccc4c(Nc5cccc(C(C)(C)O)c5)nncc34)ccc2n1
experimental-endpoint: IC50
data-value: ≤ 5 µM
//
compound: Cc1ccc(C(F)(F)F)cc1Nc1nccc2c(Nc3ncccc3-c3ncnc4[nH]ccc34)c(C)ccc12
experimental-endpoint: IC50
data-value: ≤ 5 µM
//
compound: CNc1cc(-c2cccnc2Nc2c(C)ccc3c(Nc4cc(C(C)(C)C)nn4C)nccc23)ncn1
experimental-endpoint: IC50
data-value: ≤ 5 µM
//
compound: CNc1ncc2cc(-c3c(C)ccc4c(Nc5ccc(C)c(F)c5)nn(C)c34)ccc2n1
experimental-endpoint: IC50
data-value: ≤ 1 µM
